biological target: T1, hCCR8 (Y17A) (human, UniProt P51685 1-355); assay: flow cytometry on Expi293 transfectants
T1 construct: also called mutant in which Y at position 17 of human CCR8 is substituted for A
T1 sequence (P51685 whole entry Y17A): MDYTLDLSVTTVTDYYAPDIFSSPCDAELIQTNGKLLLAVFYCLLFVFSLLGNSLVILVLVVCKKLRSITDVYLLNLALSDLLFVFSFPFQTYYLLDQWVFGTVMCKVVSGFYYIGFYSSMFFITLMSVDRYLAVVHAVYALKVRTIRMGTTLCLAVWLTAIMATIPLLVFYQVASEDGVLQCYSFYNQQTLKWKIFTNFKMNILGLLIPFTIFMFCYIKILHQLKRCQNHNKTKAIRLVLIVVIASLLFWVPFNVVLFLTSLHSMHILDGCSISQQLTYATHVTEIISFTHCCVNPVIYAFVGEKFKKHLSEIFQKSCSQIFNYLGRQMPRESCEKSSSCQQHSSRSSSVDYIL
attribute.measured: binding result

The following binders have reported results that may help.
Ask: May I ask what binding result has been recorded for 2C7 (antibody, V domains shown, mouse hybridoma antibody, purified) VH: QVQLKQSGPSLVQPSQSLSITCTVSGFSLTAYGVHWIRQSPGKGQEWLGVIWRGGSTDYNAAFMSRLTITKDNSKSQVFFKMNSLQADDTAIYYCAKKGGSYAMDYWGQGTSVTVSS VL: DVVLTQTPLSLPVSLGGQASISCRSSQSLVHSNGNTYLHWYLQKPGQSPKLLIYKVSNRFSGVPDRFSGSGSGTDFTLKISRVEAEDLGVYFCSQSTQVPLTFGAGTKLELKR ?
Reply: no binding

Ask: May I ask what binding result has been recorded for 8F7 (antibody, V domains shown, mouse hybridoma antibody, purified) VH: EVQLVESGGRLVQPKRSLKLSCAASGFTFNPYAMYWIRQAPGQGLEWVARIRSKSNNYATYYADSVKDRFTISRDDSQSMLYLQMNNLKTEDTAMYYCVRGHQGTMDYWGQGTSVTVSS VL: DIVMTQAAPSVPVTPGESVSISCRSSKSLLHSNGNTYLYWFLQRPGQSPQLLTYRMSNLASGVPDRFSGSGSGTAFTLRISRVEAEDVGVYYCMQHLEYPFTFGGGTKLEIKR ?
Reply: no binding

Ask: May I ask what binding result has been recorded for 10A11 (antibody, V domains shown, mouse hybridoma antibody, purified; also called m10A11) VH: EVQLVESGGRLVQPKGSLKLSCAASGFAFNTYALYWIRQAPGKGLEWVARIRSKSNNYATYYADSVKDRFTISRDDSQSMLYLQMNNLKTEDTAMYYCVRARFYYSDYGYAMDYWGQGTSVTVSS VL: DIVMTQAAPSVPVTPGESVSISCRSSKSLLHSNGNTYLYWFLQRPGQSPQLLIYRMSNLASGVPDRFSGSGSGTAFTLRISRVEAEDVGVYYCMQHLEYPLTFGAGTKLELKR ?
Reply: no binding

Ask: May I ask what binding result has been recorded for 1H4 (antibody, V domains shown, mouse hybridoma antibody, purified) VH: EVQLVESGGRLVQPKGSLKLSCAASGFTFNTYAMYWIRQAPGKGLEWVARIRSKSNNYATYYADSVKDRFTISRDDSQSMLYLQMNNLKTEDTAMYYCVRARFYYSDYGYAMDYWGQGTSVTVSS VL: DIVMTQAAPSVPVTPGESVSISCRSSKSLLHSNGNTYLYWFLQRPGQSPQLLIYRMSNLASGVPDRFSASGSGTAFTLRISRVEAEDVGVYYCMQHLEYPLTFGAGTKLELKR ?
Reply: no binding

In the following, a different binder is considered.
Ask: May I ask what binding result has been recorded for 27G1 (antibody, V domains shown, mouse hybridoma antibody, purified) VH: EVQLVESGGRLVQPKGSLKLSCAASGFAFNTYAMYWIRQAPGKGLEWVARIRSKSNNYATYYADSVKDRFTISRDDSQSMLYLQMNNLKTEDTAMYYCVRARFYYSDYGYAMDYWGQGTSVTVSS VL: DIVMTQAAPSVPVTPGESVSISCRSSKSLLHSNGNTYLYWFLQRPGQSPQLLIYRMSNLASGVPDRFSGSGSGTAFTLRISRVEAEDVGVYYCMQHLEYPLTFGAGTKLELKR ?
Reply: no binding

Each recorded value in this set is attributed to patent US20230256092A1.
